Biological target: Small conductance calcium-activated potassium channel (Rattus norvegicus, UniProt P70604+P70606+P70605)
Test: The SKCa-blocking action was assessed by its ability to inhibit the after hyperpolarization (AHP) in cultured rat sympathetic neurones
Assay type: functional, cell-based
Conditions: sympathetic neuron
Output satisfied for records whose IC50 is lower than 1000 nM, not satisfied for records at or above 1000 nM.

{"columns": ["Molecule", "Group"],
 "data": [
  ["COc1cc2c3cc1Oc1cc(ccc1O)C[C@@H]1c4c(cc(OC)c(O)c4Oc4ccc(cc4)C[C@@H]3N(C)CC2)CC[N+]1(C)C.[Cl-]", "not satisfied"],
  ["COc1cc(OC)c(CNc2cc[n+](CCCCCCCCCC[n+]3ccc(NCc4c(OC)cc(OC)cc4OC)c4ccccc43)c3ccccc23)c(OC)c1", "satisfied"],
  ["c1ccc(Oc2cc[n+](CCCCCCCCCC[n+]3ccc(Oc4ccccc4)c4ccccc43)c3ccccc23)cc1", "not satisfied"],
  ["c1ccc(Nc2cc[n+](CCCCCCCCCC[n+]3ccc(Nc4ccccc4)c4ccccc43)c3ccccc23)cc1", "not satisfied"],
  ["Cc1cc(N)c2ccccc2[n+]1CCCCCCCCCC[n+]1c(C)cc(N)c2ccccc21.[Cl-].[Cl-] [DEQUALINIUM CHLORIDE]", "satisfied"],
  ["CN(c1ccccc1)c1cc[n+](CCCCCCCCCC[n+]2ccc(N(C)c3ccccc3)c3ccccc32)c2ccccc12", "not satisfied"]
]}

====

Entries and their IC50 values follow.
Target: Small conductance calcium-activated potassium channel (Rattus norvegicus, UniProt P70604+P70606+P70605)
Experiment: The SKCa-blocking action was assessed by its ability to inhibit the after hyperpolarization (AHP) in cultured rat sympathetic neurones
Type: functional, cell-based
Settings: sympathetic neuron

{"columns": ["Compound", "Comparison Sign", "IC50 [µM]"],
 "data": [
  ["Cc1cc[n+](CCCCCCCCCC[n+]2ccc(C)c3ccccc32)c2ccccc12", "=", 14.5],
  ["Nc1cc[n+](CCCCCCCCCC[n+]2ccc(N)c3ccccc32)c2ccccc12", "=", 1.4],
  ["CC(=O)O[C@H]1C[C@@H]2CC[C@@H]3[C@H](CC[C@@]4(C)[C@H]3C[C@H]([N+]3(C)CCCCC3)[C@@H]4OC(C)=O)[C@@]2(C)C[C@@H]1[N+]1(C)CCCCC1.[Br-].[Br-] [PANCURONIUM BROMIDE]", "=", 6.8],
  ["[O-]c1cc[n+](CCCCCCCCCC[n+]2ccc([O-])c3ccccc32)c2ccccc12", ">", 10]
]}

====

Entries and their IC50 values follow.
Target: Small conductance calcium-activated potassium channel (Rattus norvegicus, UniProt P70604+P70606+P70605)
Test: The SKCa-blocking action was assessed by its ability to inhibit the after hyperpolarization (AHP) in cultured rat sympathetic neurones
Format: functional, cell-based
Conditions: sympathetic neuron

{"columns": ["Structure String", "IC50, nM"],
 "data": [
  ["CC(=O)Nc1cc[n+](CCCCCCCCCC[n+]2ccc(NC(C)=O)c3ccccc32)c2ccccc12", 4500],
  ["c1ccc2c(c1)ccc[n+]2CCCCCCCCCC[n+]1cccc2ccccc21", 21000],
  ["CN(C)c1cc[n+](CCCCCCCCCC[n+]2ccc(N(C)C)c3ccccc32)c2ccccc12", 1400],
  ["Nc1ccc2c(NCc3ccccc3)cc[n+](CCCCCCCCCC[n+]3ccc(NCc4ccccc4)c4ccc(N)cc43)c2c1", 500],
  ["c1ccc(CNc2cc[n+](CCCCCCCCCC[n+]3ccc(NCc4ccccc4)c4ccccc43)c3ccccc23)cc1", 520]
]}
